Kindly supply the reported pEC50 values for the records listed here.
# Tgt: T1, human CD73 ecto-domain recombinant protein (huCD73) (human, UniProt P21589 27-547)
# T1 construct: also called soluble huCD73; soluble recombinant CD73
# T1 sequence: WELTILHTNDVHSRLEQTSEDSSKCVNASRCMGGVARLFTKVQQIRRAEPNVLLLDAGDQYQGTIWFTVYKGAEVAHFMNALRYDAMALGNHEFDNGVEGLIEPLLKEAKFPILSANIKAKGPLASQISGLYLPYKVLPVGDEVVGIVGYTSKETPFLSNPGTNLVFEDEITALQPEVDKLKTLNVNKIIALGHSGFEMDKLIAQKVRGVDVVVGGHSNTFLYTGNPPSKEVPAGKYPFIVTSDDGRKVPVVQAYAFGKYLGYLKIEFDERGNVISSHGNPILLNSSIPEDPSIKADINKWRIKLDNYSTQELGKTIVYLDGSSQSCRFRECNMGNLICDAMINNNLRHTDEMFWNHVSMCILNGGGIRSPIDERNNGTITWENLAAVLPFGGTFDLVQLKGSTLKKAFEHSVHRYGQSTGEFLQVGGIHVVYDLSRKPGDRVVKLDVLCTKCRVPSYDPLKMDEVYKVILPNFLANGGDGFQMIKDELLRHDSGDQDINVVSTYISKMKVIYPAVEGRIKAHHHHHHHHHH
# Protocol: indirect ELISA, coated huCD73 recombinant protein
Would you please state pEC50, meaning minus log10 of the concentration in mol/L, as a bare number?

Supply pEC50 value. Item: JB94H3L3 (antibody, human IgG1, kappa, V domains shown, Humanized antibody of the 94 clone, human IgG1 / kappa) VH: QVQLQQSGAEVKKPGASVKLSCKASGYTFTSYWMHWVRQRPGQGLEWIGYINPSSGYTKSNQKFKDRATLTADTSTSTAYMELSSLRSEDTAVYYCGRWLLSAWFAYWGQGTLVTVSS VL: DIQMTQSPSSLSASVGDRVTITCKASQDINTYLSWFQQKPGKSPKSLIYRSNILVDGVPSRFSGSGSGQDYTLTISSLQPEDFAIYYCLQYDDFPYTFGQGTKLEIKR
10.53

Please report the measured pEC50 for JB24H3L3 (antibody, human IgG1, kappa, V domains shown, Humanized antibody of JB24Chi, human IgG1 / kappa) VH: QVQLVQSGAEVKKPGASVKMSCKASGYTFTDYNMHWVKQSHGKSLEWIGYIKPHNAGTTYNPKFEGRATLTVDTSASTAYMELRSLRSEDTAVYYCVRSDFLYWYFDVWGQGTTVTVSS VL: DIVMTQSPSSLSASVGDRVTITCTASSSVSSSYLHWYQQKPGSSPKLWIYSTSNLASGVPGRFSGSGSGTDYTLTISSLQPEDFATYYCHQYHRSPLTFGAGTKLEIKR
10.64

Consider the binder JB24H2L1 (antibody, human IgG1, kappa, V domains shown, Humanized antibody of JB24Chi, human IgG1 / kappa) VH: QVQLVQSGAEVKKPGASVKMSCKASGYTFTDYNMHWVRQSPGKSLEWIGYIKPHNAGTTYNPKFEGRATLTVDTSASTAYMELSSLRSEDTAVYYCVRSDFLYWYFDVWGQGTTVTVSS VL: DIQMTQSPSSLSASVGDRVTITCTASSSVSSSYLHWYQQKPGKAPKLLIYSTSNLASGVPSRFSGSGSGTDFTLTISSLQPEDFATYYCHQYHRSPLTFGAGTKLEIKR and give its recorded pEC50.
10.61

In one line, give reported pEC50 of the entry JB24H3L2 (antibody, human IgG1, kappa, V domains shown, Humanized antibody of JB24Chi, human IgG1 / kappa) VH: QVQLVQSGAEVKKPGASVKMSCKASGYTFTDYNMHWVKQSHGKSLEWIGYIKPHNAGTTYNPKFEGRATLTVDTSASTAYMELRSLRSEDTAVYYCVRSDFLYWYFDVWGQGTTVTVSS VL: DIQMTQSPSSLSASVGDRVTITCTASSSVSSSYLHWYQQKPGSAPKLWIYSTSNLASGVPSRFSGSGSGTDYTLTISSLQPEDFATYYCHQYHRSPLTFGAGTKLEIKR .
10.68

Please give measured pEC50 of the following entry: JB24Chi (antibody, human IgG1, kappa, V domains shown, Phage antibody, chimeric human IgG1 / human kappa full chains) VH: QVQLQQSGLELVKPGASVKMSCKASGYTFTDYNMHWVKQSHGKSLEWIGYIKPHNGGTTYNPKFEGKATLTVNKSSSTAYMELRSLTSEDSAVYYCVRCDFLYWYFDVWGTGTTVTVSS VL: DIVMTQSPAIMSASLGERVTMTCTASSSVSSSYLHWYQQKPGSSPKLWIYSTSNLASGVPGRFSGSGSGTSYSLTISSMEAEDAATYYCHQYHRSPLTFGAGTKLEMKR
10.56

Item JB94H2L1 (antibody, human IgG1, kappa, V domains shown, Humanized antibody of the 94 clone, human IgG1 / kappa) VH: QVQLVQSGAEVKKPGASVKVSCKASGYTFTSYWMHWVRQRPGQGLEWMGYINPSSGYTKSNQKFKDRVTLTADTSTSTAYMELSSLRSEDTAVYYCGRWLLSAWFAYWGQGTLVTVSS VL: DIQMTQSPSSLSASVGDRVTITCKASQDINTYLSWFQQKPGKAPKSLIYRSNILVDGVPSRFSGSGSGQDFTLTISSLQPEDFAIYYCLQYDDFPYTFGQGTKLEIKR : provide pEC50
10.60
